# assay.name: LNP average particle size and polydispersity by dynamic light scattering
# Format: physicochemical
# assay.setup: LNP with the compound as amine lipid; Expt. 1; composition ratio (mol %) 50/9/38/3 for Cmpnd 49, 50/10/38.5/1.5 for the others
readout.name: Z-Ave Size (nm)

CCCCC/C=C\C/C=C\CCCCCCCC(=O)OCC(COC(=O)CCCCCCC/C=C\C/C=C\CCCCC)OC(=O)CCC(CCCCCCCC)OC(=O)NCCN(C)CC (stereo not shown) = 93.66
CCCCC/C=C\C/C=C\CCCCCCCC(=O)OCC(COC(=O)CCCCCCC/C=C\C/C=C\CCCCC)COC(=O)CCCC(CCCCCCCC)OC(=O)NCCN(C)CC (stereo not shown) = 117.30
CCCCC/C=C\C/C=C\CCCCCCCC(=O)OCC(COC(=O)CCCCCCC/C=C\C/C=C\CCCCC)OC(=O)CC(CCCCCCCC)OC(=O)NCCN(C)CC (stereo not shown) = 90.75
CCCCCCCCCCCOC(=O)CCCCCCCC(=O)OCC(COC(=O)CCCCCCCC(=O)OCCCCCCCCCCC)OC(=O)CCCC(CCCCCCCC)OC(=O)NCCN(C)CC (stereo not shown) = 102.00
CCCCC/C=C\C/C=C\CCCCCCCC(=O)OCC(COC(=O)CCC(OCCCCCCCC)OCCCCCCCC)COC(=O)OCCCN(CC)CC (stereo not shown) [Compound 49, reference compound] = 87.92
CCCCCCCCCCCOC(=O)CCCCCCCC(=O)OCC(COC(=O)CCCCCCCC(=O)OCCCCCCCCCCC)OC(=O)CCC(CCCCCCCC)OC(=O)NCCN(C)CC (stereo not shown) = 103.40
CCCCC/C=C\C/C=C\CCCCCCCC(=O)OCC(COC(=O)CCCCCCCC(=O)OCCCCCCCCCCC)OC(=O)CC(CCCCCCCC)OC(=O)NCCN(C)CC (stereo not shown) = 106.40
CCCCCCCCCCOC(=O)CCCCCCCC(=O)OCC(COC(=O)CCCCCCCC(=O)OCCCCCCCCCC)OC(=O)CCC(CCCCCCCC)OC(=O)NCCN(C)CC (stereo not shown) = 100.40
CCCCCCCCCCCOC(=O)CCCCCCCC(=O)OCC(COC(=O)CCCCCCCC(=O)OCCCCCCCCCCC)OC(=O)CC(CCCCCCCC)OC(=O)NCCN(C)CC (stereo not shown) = 109.90
CCCCC/C=C\C/C=C\CCCCCCCC(=O)OCC(COC(=O)CCCCCCCC(=O)OCCCCCCCCCCC)OC(=O)CCC(CCCCCCCC)OC(=O)NCCN(C)CC (stereo not shown) = 106.00
CCCCC/C=C\C/C=C\CCCCCCCC(=O)OCC(COC(=O)CCCCCCC/C=C\C/C=C\CCCCC)COC(=O)CC(CCCCCCCC)OC(=O)NCCN(C)CC (stereo not shown) = 92.99
CCCCC/C=C\C/C=C\CCCCCCCC(=O)OCC(COC(=O)CCCCCCC/C=C\C/C=C\CCCCC)OC(=O)CCC(CCCCCCCCCCCC)OC(=O)OCCCN(C)C (stereo not shown) = 68.63
CCCCC/C=C\C/C=C\CCCCCCCC(=O)OCC(COC(=O)CCCCCCCC(=O)OCCCCCCCCCCC)OC(=O)CCCC(CCCCCCCC)OC(=O)NCCN(C)CC (stereo not shown) = 106.40
